Consider the following molecules; for each one, report its half-life.
Experiment: Pharmacokinetic (PK) analysis in rats
Type: in vivo, Sprague Dawley (SD) rats
Conditions: Sprague-Dawley, rat, plasma, po; SD rats, single intragastric administration, 5 mg/kg; read-out: Half-Time t1/2 (converted)
Description: 1) 0.2 ml of intravenous blood was collected and placed in a K2EDTA test tube. The blood was centrifuged at room temperature at the speed of 1000˜3000×g for 5˜20 minutes to isolate the plasma, which was then stored at −80° C. 2) 160 μL of acetonitrile was added to 40 μL of plasma sample for precipitation, and then the mixture was centrifuged at the speed of 500˜2000×g for 5˜20 minutes. 3) 100 μL of treated solution was taken, and the concentration of the test compound was analyzed by LC/MS/MS. […]

Return half-life (reported value) for this molecule: "COC[C@@H](C)Nc1cc(NC(=O)N2CCCc3cc(CN4CCCCOC4=O)c(C=O)nc32)ncc1C#N"
1.27 h

Supply half-life value. Item: "CONc1cc(NC(=O)N2CCCc3cc(CN4CCOCC4=O)c(C=O)nc32)ncc1C#N"
0.98 h

Complete the entry with half-life for CO[C@H]1COCC1Nc1cc(NC(=O)N2CCCc3cc(CN4CCOCC4=O)c(C=O)nc32)ncc1C#N (stereo partly shown)
1 h

Entry "COCCNc1cc(NC(=O)N2CCCc3cc(CN4CCCCOC4=O)c(C=O)nc32)ncc1C#N" needs its half-life filled in; supply it.
1.02 h

* * *

Consider compounds characterized by their pIC50 with FGFR4 kinase (Homo sapiens (Human)).
Sequence (P22455 22-802): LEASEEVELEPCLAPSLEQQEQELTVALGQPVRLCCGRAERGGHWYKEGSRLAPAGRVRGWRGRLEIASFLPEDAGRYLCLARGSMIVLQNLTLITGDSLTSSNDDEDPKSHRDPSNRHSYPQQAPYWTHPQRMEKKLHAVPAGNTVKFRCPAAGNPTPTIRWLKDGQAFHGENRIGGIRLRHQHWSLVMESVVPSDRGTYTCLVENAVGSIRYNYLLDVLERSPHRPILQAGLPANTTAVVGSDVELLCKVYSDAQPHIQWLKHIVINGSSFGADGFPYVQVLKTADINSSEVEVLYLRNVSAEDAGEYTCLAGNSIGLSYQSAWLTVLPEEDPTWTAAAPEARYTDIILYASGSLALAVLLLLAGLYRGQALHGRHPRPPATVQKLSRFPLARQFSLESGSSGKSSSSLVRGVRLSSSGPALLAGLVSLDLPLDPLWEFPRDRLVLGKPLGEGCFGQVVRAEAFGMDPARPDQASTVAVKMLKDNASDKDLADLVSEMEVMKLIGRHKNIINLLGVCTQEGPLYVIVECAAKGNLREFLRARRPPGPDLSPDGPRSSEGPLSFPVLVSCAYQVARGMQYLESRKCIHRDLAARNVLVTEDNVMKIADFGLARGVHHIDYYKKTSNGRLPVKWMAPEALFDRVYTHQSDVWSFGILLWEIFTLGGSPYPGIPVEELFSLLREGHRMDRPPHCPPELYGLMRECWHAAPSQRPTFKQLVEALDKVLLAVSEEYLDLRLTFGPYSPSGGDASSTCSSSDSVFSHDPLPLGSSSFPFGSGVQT
For clarity, pIC50 is expressed as the negative log10 of concentration in mol/L.

Quick one: give measured pIC50 for N#Cc1cnc(NC(=O)N2CCCc3cc(CN4CCCCOC4=O)c(C=O)nc32)cc1S[C@H]1CCOC1 [Example 36]
8.37

Note down pIC50 recorded for CC1COC(=O)N1Cc1cc2c(nc1C=O)N(C(=O)Nc1cc(S[C@@H]3CCOC3)c(C#N)cn1)CCC2 (stereo partly drawn) [Example 44]
8.19

Provide only the value of recorded pIC50 for CO[C@H]1COCC1Nc1cc(NC(=O)N2CCCc3cc(CN4CCOCC4=O)c(C=O)nc32)ncc1C#N (stereo partly drawn) [Example 66]
9.01

Give a short answer stating reported pIC50 for COC[C@@H](C)Oc1cc(NC(=O)N2CCCc3cc(CN4C(=O)OCC45CC5)c(C=O)nc32)ncc1C#N [Example 42] .
8.64

Consider the compound CO[C@H]1COCC1Oc1cc(NC(=O)N2CCCc3cc(CN4CCOCC4=O)c(C=O)nc32)ncc1C#N (stereo partly drawn) [Example 67] and give its recorded pIC50.
8.64

Provide pIC50 value for the following compound: COCCNc1cc(NC(=O)N2CCCc3cc(CN4CCCN(C)CC4=O)c(C=O)nc32)ncc1C#N [Example 7]
9.22

Retrieve pIC50 measured for CO[C@@H]1CCN(c2cc(NC(=O)N3CCCc4cc(CN5CCN(C)CC5=O)c(C=O)nc43)ncc2C#N)C1 [Example 64] and print it.
8.79

Please report the measured pIC50 for C[C@H]1COC(=O)N1Cc1cc2c(nc1C=O)N(C(=O)Nc1cc(S[C@H]3CCOC3)c(C#N)cn1)CCC2 [Example 45]
8.33

Please report pIC50 for the following compound: COc1ccccc1Nc1cc(NC(=O)N2CCCc3cc(CN4CCOCC4=O)c(C=O)nc32)ncc1C#N [Example 8]
8.47
